pIC50 listing for selected compounds.
- Tested on: Daoy
- Experiment Summary: Antiproliferative activity against human DaOY cells assessed as reduction in cell viability incubated for 72 hrs by trypan blue or crystal violet staining based assay
- Format: functional
- Test Context: Homo sapiens, Daoy, 72 h; read-out: IC50
pIC50: −log10 of the molar value.
Measure Name: pIC50

Compound	Reading
O=C(NC1CCCc2ccccc21)c1cnn2c(C(F)(F)F)cc(-c3cccs3)nc12 (centres undefined)	5.36
COc1cc(OC)c2c(=O)c(-c3ccc(OCC=C(C)C)c(OCC=C(C)C)c3)coc2c1	6.89
O=C(NC1CCCc2ccccc21)c1cnn2c(C(F)F)cc(C3CC3)nc12 (centres undefined)	5.12
CCOC(=O)c1c(-c2ccccc2)csc1NC(NC(=O)c1ccco1)C(Cl)(Cl)Cl (centres undefined)	5.37
CCOC(=O)c1c(-c2ccccc2)csc1NC(NC(=O)c1ccc([N+](=O)[O-])cc1)C(Cl)(Cl)Cl (centres undefined)	5.51
CC1(C)CC(NC(=O)c2cnn3c(C(F)F)cc(C4CC4)nc23)c2ccccc2O1 (centres undefined)	5.64
CCOC(=O)c1c(-c2ccccc2)csc1NC(NC(=O)CC)C(Cl)(Cl)Cl (centres undefined)	5.22
CCOC(=O)c1c(-c2ccccc2)csc1NC(NC(=O)c1cccc(Cl)c1)C(Cl)(Cl)Cl (centres undefined)	5.26
CCOC(=O)c1c(-c2ccccc2)csc1NC(NC(=O)c1ccccc1)C(Cl)(Cl)Cl (centres undefined)	6.05

src = ChEMBL document CHEMBL4613300
